target_of_assay: Cholinesterase (Equus caballus) (UniProt P81908)
Sequence (P81908 whole entry): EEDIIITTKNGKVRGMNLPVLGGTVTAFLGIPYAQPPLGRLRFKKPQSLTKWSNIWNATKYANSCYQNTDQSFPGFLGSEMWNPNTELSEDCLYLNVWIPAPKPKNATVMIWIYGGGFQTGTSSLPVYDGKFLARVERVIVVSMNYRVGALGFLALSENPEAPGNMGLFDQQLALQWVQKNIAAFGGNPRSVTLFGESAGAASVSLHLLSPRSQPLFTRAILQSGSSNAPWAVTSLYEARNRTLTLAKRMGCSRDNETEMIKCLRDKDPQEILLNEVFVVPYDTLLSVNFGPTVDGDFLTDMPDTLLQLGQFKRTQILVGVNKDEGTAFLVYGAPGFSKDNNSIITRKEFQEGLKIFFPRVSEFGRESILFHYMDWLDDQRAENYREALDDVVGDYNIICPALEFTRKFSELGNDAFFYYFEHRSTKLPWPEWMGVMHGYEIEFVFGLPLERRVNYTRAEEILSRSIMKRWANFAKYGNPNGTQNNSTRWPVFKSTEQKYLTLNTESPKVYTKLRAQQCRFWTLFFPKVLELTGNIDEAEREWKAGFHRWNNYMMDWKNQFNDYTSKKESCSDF
assay_notes: Inhibition of horse serum BChE at 12.5 ug using butyrylthiocholine chloride as substrate preincubated for 15 mins followed by substrate addition measured every 5 mins for 15 mins by spectrophotometric method relative to control
inhibition listing for selected compounds.
Give the value in % but do not write % after it.

Use these answered entries as a reference point.
Cc1ccc(C2c3c(n[nH]c3C)Oc3nc4c(c(N)c32)CCCC4)c(C)c1 (configuration not stated) | 49.7
Cc1[nH]nc2c1C(c1ccc(-c3ccccc3)cc1)c1c(nc3c(c1N)CCCC3)O2 (configuration not stated) | 14.1
Cc1[nH]nc2c1C(c1ccc([N+](=O)[O-])cc1)c1c(nc3c(c1N)CCCC3)O2 (configuration not stated) | 92.6
Cc1[nH]nc2c1C(c1ccc(Br)cc1)c1c(nc3c(c1N)CCCC3)O2 (configuration not stated) | 60.5
Cc1[nH]nc2c1C(c1cc([N+](=O)[O-])ccc1Cl)c1c(nc3c(c1N)CCCC3)O2 (configuration not stated) | 54.2

Q: Which measured inhibition value corresponds to COc1ccc(C2c3c(n[nH]c3C)Oc3nc4c(c(N)c32)CCCC4)c(OC)c1 (configuration not stated) ?
Result: 62.8

Q: Which measured inhibition value corresponds to CSc1ccc(C2c3c(n[nH]c3C)Oc3nc4c(c(N)c32)CCCC4)cc1 (configuration not stated) ?
Result: 44.5

###

inhibition listing for selected compounds.
target_of_assay: Cholinesterase (Equus caballus) (UniProt P81908)
assay_notes: Inhibition of horse serum BChE at 25 ug using butyrylthiocholine chloride as substrate preincubated for 15 mins followed by substrate addition measured every 5 mins for 15 mins by spectrophotometric method relative to control

Use these answered entries as a reference point.
COc1ccc2c3c1O[C@H]1C[C@@H](O)C=C[C@@]31CCN(C)C2 | 97%
Cc1[nH]nc2c1C(c1cccnc1)c1c(nc3c(c1N)CCCC3)O2 (centres undefined) | 84.8%

Q: Which measured inhibition value corresponds to Cc1[nH]nc2c1C(c1c(Cl)cccc1[N+](=O)[O-])c1c(nc3c(c1N)CCCC3)O2 (centres undefined) ?
Result: 98.7%

Q: Which measured inhibition value corresponds to COc1ccc(C2c3c(n[nH]c3C)Oc3nc4c(c(N)c32)CCCC4)c(OC)c1 (centres undefined) ?
Result: 80.8%

###

target_of_assay: Cholinesterase (Equus caballus)
assay_notes: Inhibition of horse serum BChE using butyrylthiocholine chloride as substrate preincubated for 15 mins followed by substrate addition measured every 5 mins for 15 mins by spectrophotometric method
pIC50: −log10 of the molar value.
metric_name: pIC50

Use these answered entries as a reference point.
Cc1[nH]nc2c1C(c1ccc(-c3ccccc3)cc1)c1c(nc3c(c1N)CCCC3)O2 (stereo not drawn) | < 4.21
CSc1ccc(C2c3c(n[nH]c3C)Oc3nc4c(c(N)c32)CCCC4)cc1 (stereo not drawn) | < 4.18

Let us examine a further case.
Q: Which measured pIC50 value corresponds to Cc1[nH]nc2c1C(c1ccc(Cl)cc1)c1c(nc3c(c1N)CCCC3)O2 (stereo not drawn) ?
Result: < 4.17

###

target_of_assay: Cholinesterase (Equus caballus) (UniProt P81908)
assay_notes: Inhibition of horse serum BChE at 0.781 ug using butyrylthiocholine chloride as substrate preincubated for 15 mins followed by substrate addition measured every 5 mins for 15 mins by spectrophotometric method relative to control
inhibition listing for selected molecules.
Give the value in % but do not write % after it.

Q: Which measured inhibition value corresponds to Cc1[nH]nc2c1C(c1ccc(Br)cc1)c1c(nc3c(c1N)CCCC3)O2 (stereo not given) ?
Result: 17.4

Q: Which measured inhibition value corresponds to `COc1ccc2c3c1O[C@H]1C[C@@H](O)C=C[C@@]31CCN(C)C2` ?
Result: 21

Q: Which measured inhibition value corresponds to COc1ccc(C2c3c(n[nH]c3C)Oc3nc4c(c(N)c32)CCCC4)c(OC)c1 (stereo not given) ?
Result: 17.8

Q: Which measured inhibition value corresponds to Cc1[nH]nc2c1C(c1c(Cl)cccc1[N+](=O)[O-])c1c(nc3c(c1N)CCCC3)O2 (stereo not given) ?
Result: 52.1

Q: Which measured inhibition value corresponds to Cc1[nH]nc2c1C(c1cccnc1)c1c(nc3c(c1N)CCCC3)O2 (stereo not given) ?
Result: 41.6
